B1: Hairpin Ribozyme (parent)
chain: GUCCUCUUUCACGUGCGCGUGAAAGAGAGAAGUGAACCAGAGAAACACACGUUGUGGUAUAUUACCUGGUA

variants of: B1; assay: self-cleavage, relative activity (ratio to wild type); higher = more cleavage; co-transcriptional
reportedEndpoint: self-cleavage
Lab note: record just the number, no unit beside it.

var	self-cleavage
G29U C66A	0.205
A41U U67A	0.364
A23C A43U	0.115
A24U A71G	1.11
C37U U55C	0.172
U33C C50U	0.0772
G1C G19A	0.197
C12U A71G	0.797
C10A U20C	0.732
C12U A26C	0.481

What the record says about G13C A39C : self-cleavage is 0.59

The variant listed as A23G U58A shows self-cleavage equal to 0.662

Recorded result, G19U A43C , self-cleavage: 0.101

The reported value for U14C A23U in terms of self-cleavage is 1.09

Per the record, U20C U55A has self-cleavage of 0.407

Values compiled from the RNAGym collection of RNA variant scans (doi:10.7554/elife.80360).
